- assayed target: UniProt:P41145
- Sequence (P41145 whole entry): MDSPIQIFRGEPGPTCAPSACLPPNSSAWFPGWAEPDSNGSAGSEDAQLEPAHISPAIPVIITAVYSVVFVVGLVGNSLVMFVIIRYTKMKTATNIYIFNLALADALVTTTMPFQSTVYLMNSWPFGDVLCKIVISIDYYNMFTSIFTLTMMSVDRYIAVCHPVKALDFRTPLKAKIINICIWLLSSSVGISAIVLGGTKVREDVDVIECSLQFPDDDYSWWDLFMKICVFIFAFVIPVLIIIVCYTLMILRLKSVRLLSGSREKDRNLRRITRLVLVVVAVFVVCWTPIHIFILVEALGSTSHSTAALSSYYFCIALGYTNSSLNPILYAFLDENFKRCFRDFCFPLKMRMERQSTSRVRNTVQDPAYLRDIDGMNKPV
pKi: −log10 of the molar value. Numbered stars: 1 amine (or outer) side, 2 acyl side, 3 side chain; on linkers, the order of the positions; unused ones are H or OH. Bridge positions count the residues as written; N and C are the ends. Square brackets hold non-standard residues; d marks the D form. Peptide text beside a SMILES is read from it. 1Nal = N[C@@H](Cc1cccc2ccccc12)C(=O)O; 2Nal = N[C@@H](Cc1ccc2ccccc2c1)C(=O)O; CH2 = C([*:1])[*:2]
Is pKi at least 8? Then Met. If not, Not met.

compound: NC(=O)[C@@H]1CSSC[C@@H](NC(=O)[C@@H](N)Cc2ccc(O)cc2)C(=O)N[C@@H](Cc2ccc3ccccc3c2)C(=O)N[C@@H](Cc2ccccc2)C(=O)N1 (H-Y[dC][2Nal]FC-NH2; disulfide 2-5)
assigned label: Not met
--
compound: NC(=O)[C@@H]1CSCSC[C@@H](NC(=O)[C@@H](N)Cc2ccc(O)cc2)C(=O)N[C@@H](Cc2ccccc2)C(=O)N[C@@H](Cc2ccc3ccccc3c2)C(=O)N1 (H-Y[dC]F[2Nal]C-NH2; linker 2-5 via CH2)
assigned label: Met
--
compound: NC(=O)[C@@H]1CSCSC[C@@H](NC(=O)[C@@H](N)Cc2ccc(O)cc2)C(=O)N[C@@H](Cc2ccc3ccccc3c2)C(=O)N[C@@H](Cc2ccccc2)C(=O)N1 (H-Y[dC][2Nal]FC-NH2; linker 2-5 via CH2)
assigned label: Not met
--
compound: NC(=O)[C@@H]1CSCSC[C@@H](NC(=O)[C@@H](N)Cc2ccc(O)cc2)C(=O)N[C@@H](Cc2cccc3ccccc23)C(=O)N[C@@H](Cc2ccccc2)C(=O)N1 (H-Y[dC][1Nal]FC-NH2; linker 2-5 via CH2)
assigned label: Met
--
compound: NC(=O)[C@@H]1CSSC[C@@H](NC(=O)[C@@H](N)Cc2ccc(O)cc2)C(=O)N[C@@H](Cc2cccc3ccccc23)C(=O)N[C@@H](Cc2ccccc2)C(=O)N1 (H-Y[dC][1Nal]FC-NH2; disulfide 2-5)
assigned label: Not met
